molecular target: c-Myc template DNA (c-myc quadruplex); test: Quadruplex binding / stop assay (Taq polymerase arrest, capillary electrophoresis); conditions: read-out: Stop Data c-Myc μM; concentration at which 50% of the DNA was arrested (arrested:full-length 1:1)
property.name: IC50 (µM)
Lab book: enter the figure in µM, no units written.

Entry O=C(NCCCN1CCOCC1)c1cn2c3cc4oc5cc([N+](=O)[O-])ccc5[nH]c4cc3oc3c(NCCCN4CCOCC4)c(F)cc(c1=O)c32 ; IC50 = 0.75

Entry under test: CN(C)CC(C)(C)CNC(=O)c1cn2c3c(c(N4CCC(N)C4)c(F)cc3c1=O)Oc1cc3ccccc3cc1-2 (stereo not drawn) [compound 531] . Its IC50 was 0.375

CC1CCCCN1CCCNc1c(F)cc2c(=O)c(C(=O)N3CCOCC3)cn3c2c1Oc1cc2ccccc2cc1-3 (stereo not drawn) yielded IC50 of 0.75
